// provenance: PubChem BioAssay (NCATS)

Test system: CAOV3
Protocol notes: Primary qHTS to identify gynecologic anti-cancer compounds using libraries of approved drugs and bioactive compounds (AID 1345084); further: on the % scale 0 is the no-effect control and ±100 the full control effect; nearly all actives have a fitted effect of over 55% in size
Condition: Gynecologic cancer cell panel viability, ATPlite luminescence, 48 h; series mostly up to 57.5 µM
Source text: National Center for Advancing Translational Sciences [NCATS] Assay Overview: Chemotherapeutic drug responses vary from cancer to cancer and from patient to patient. […] ATPlite is a luminescence based assay reliant on the conversion of a luciferase substrate to light in the presence of ATP. As a cytotoxic compound will suppress growth and decrease the number of cells, the concentration of ATP will decrease, and less light signal will be detected in the well. […]
Records with an inconclusive call do not appear. The source made the active and inactive calls. The call rests on the fitted dose curve; in most records, active means well fitted cell-killing curve with a large enough effect; inconclusive means small, poorly fitted or top-dose-only effect, or effect the other way; inactive means flat fitted curve, though single readings scatter.
Metric name: activity change, negative = cytotoxicity

See these solved cases before continuing.
Compound	activity change, negative = cytotoxicity
COc1ccc(Cc2cnc(N)nc2N)cc1OC	inactive
CO[C@@]1(NC(=O)C(C(=O)O)c2ccc(O)cc2)C(=O)N2C(C(=O)O)=C(CSc3nnnn3C)CO[C@@H]21 (stereo partly specified)	inactive
COc1ccccc1OCC(O)CO (stereo unspecified)	inactive
CCN[C@H]1CN(CCCOC)S(=O)(=O)c2sc(S(N)(=O)=O)cc21	inactive
Cc1ccc2c(c1)c1c3n2CCNC3CCC1 (stereo unspecified)	inactive

Here is another compound to look at.
Q: # query: activity change, negative = cytotoxicity of entry "COC(=O)c1ccccc1C(=O)c1ccc(OCCN2CCCCC2)cc1"
Ans: inactive

====

Protocol notes: qHTS drug screen for cell cycle checkpoint inhibitors in PARPi-resistant BRCA-mutant ovarian cancer cell lines. (AID 1963452)
Condition: PEO1/OlaR viability, CellTiter-Glo luminescence, 96 h; hits give low values
Metric name: Z-AUC
Write the number on its own, no unit after it.

Q: # query: Z-AUC of entry "CCOC(=O)[C@H](CCc1ccccc1)N[C@@H](C)C(=O)N1CCC[C@H]1C(=O)O"
Ans: 0.643

Q: What do you get for "CN(C(=O)c1c(O)c2ccccc2n(C)c1=O)c1ccccc1" ?
Ans: 0.957

Q: What do you get for "OCCN1C[C@H](O)[C@@H](O)[C@H](O)[C@H]1CO" ?
Ans: 0.928

Q: What do you get for "COc1ccc(-c2cc(=O)c3c(O)cc(O[C@@H]4O[C@H](CO[C@@H]5O[C@@H](C)[C@H](O)[C@@H](O)[C@H]5O)[C@@H](O)[C@H](O)[C@H]4O)cc3o2)cc1O" ?
Ans: 1.88

====

System: Retinoic acid receptor RXR-alpha (Homo sapiens) (UniProt P19793)
Sequence (P19793 whole entry, looked up): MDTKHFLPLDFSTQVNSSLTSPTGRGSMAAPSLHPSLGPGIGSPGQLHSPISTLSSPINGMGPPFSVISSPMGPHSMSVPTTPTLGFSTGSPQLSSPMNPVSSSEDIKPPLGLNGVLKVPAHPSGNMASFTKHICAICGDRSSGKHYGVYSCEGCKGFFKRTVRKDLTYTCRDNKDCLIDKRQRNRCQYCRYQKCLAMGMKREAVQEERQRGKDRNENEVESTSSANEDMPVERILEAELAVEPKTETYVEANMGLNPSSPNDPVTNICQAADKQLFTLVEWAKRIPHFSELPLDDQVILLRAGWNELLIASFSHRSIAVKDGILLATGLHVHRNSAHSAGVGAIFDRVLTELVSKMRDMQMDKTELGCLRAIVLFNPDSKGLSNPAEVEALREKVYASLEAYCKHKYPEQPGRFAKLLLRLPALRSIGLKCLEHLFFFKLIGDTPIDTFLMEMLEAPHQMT
Protocol notes: qHTS assay for small molecule agonists of retinoid X receptor alpha signaling (AID 588544);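 further: 0% = DMSO basal wells and 100% = reference agonist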
Condition: HEK293T RXRa-UAS-bla, beta-lactamase reporter, 18 h; series mostly up to 76.7 µM
Excerpt: NIH Chemical Genomics Center [NCGC] U.S. Environmental Protection Agency [EPA] National Institutes of Environmental Health Sciences [NIEHS] National Toxicology Program [NTP] NCGC Assay Overview The Retinoid X receptor (RXR), a nuclear hormone receptor is expressed in liver, spleen, placenta, epidermis, central nervous system. […]
Inconclusive results are not listed. The source made the active and inactive calls. Calls follow the shape of the full dose curve.
Metric name: outcome

Molecule	outcome
CC(C)=CCC/C(C)=C/CO	inactive
CC(=O)OCC(COC(C)=O)OC(C)=O	inactive
COC(=O)c1ccc(O)cc1	inactive
CC(=O)Nc1cccc(O)c1	inactive
CCCCCCCC(=O)OCC(COC(=O)CCCCCCC)OC(=O)CCCCCCC	inactive

Q: # query: outcome of entry CCCC(O)C(CC)CO (stereo unspecified)
Ans: inactive

Q: What do you get for "CCCCCCCCCCCCCCCCCCO" ?
Ans: inactive

Q: What do you get for "Cc1cc(O)cc(C)c1Cl" ?
Ans: inactive

Q: What do you get for "Nc1ccc(S(=O)(=O)c2ccc(N)cc2)cc1" ?
Ans: inactive

Q: What do you get for "CC[N+](CC)(CC(=O)Nc1c(C)cccc1C)Cc1ccccc1" ?
Ans: inactive

Q: What do you get for "Cc1ccc(C(C)C)c(O)c1" ?
Ans: inactive

Q: What do you get for "CC(=O)NS(=O)(=O)c1ccc(N)cc1" ?
Ans: inactive

====

Protocol notes: qHTS Assay for Identifying Gametocytocidal Compounds (AID 743244);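 further: on the % scale 0 is the no-effect control and ±100 the full control effect; actives lower the fluorescent signal which means gametocytes are killed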
Condition: P. falciparum 3D7 stage III-V gametocytes, alamarBlue, 72 h; hits give low values
Inconclusive results are not listed.
Metric name: max response (%)
A number alone suffices; assume %.

Q: # query: max response of entry "Cc1ccsc1C(=CCCN1CCC[C@@H](C(=O)O)C1)c1sccc1C"
Ans: -0.959

Q: What do you get for "C[C@@H]1CCC[C@H](C)N1" ?
Ans: 20.8

Q: What do you get for "CC(C)(C)C(=O)OCOC(=O)[C@@H]1N2C(=O)[C@@H](NC(=O)[C@H](N)c3ccccc3)[C@H]2SC1(C)C" ?
Ans: 0.54

Q: What do you get for "O=C(O)Cc1cn(-c2ccccc2)nc1-c1ccc(Cl)cc1" ?
Ans: 6.52

Q: What do you get for "CCOC(=O)[C@H](CCc1ccccc1)N[C@@H](C)C(=O)N1CCC[C@H]1C(=O)O" ?
Ans: -2.72

Q: What do you get for "Cc1cc(-n2nc3ccc(Cl)cc3n2)c(O)c(C(C)(C)C)c1" ?
Ans: -8.61

Q: What do you get for "COc1ccccc1Oc1c(NS(=O)(=O)c2ccc(C(C)(C)C)cc2)nc(-c2ncccn2)nc1OCCO" ?
Ans: -3.79

Q: What do you get for "O=C(O)[C@@H]1[C@H]2C[C@H]3c4[nH]c5ccccc5c4CCN3C[C@@H]2CC[C@@H]1O" ?
Ans: -6.8

Q: What do you get for "Nc1ncnc(Nc2ccccc2)n1" ?
Ans: -1.5

Q: What do you get for "Cn1c(=O)c2c(ncn2CCO)n(C)c1=O" ?
Ans: 6.91

====

Test system: W2
Protocol notes: qHTS profiling for inhibitors of Plasmodium falciparum proliferation (AID 504749); further: nearly all actives have a fitted effect of over 60% in size
Condition: P. falciparum in erythrocytes, SYBR Green DNA, 72 h; series mostly up to 28.7 µM
Inconclusive results are not listed. Active and inactive are the calls of the source. Calls come from the whole dose curve; as a rule, active = well fitted inhibition curve with a large enough effect; inconclusive = small, poorly fitted or top-dose-only effect; inactive = flat fitted curve, though single readings scatter.
Pick from active, inactive when you respond.

Q: What did this assay record as the result for "Nc1ccc(S(=O)(=O)c2ccc(N)cc2)cc1" ?
Ans: inactive

Q: What do you get for "O=C(O)Cn1c(C(=O)Nc2nc(-c3ccccc3Cl)cs2)cc2ccccc21" ?
Ans: inactive

Q: What do you get for NCC1CCC(C(=O)Oc2ccc(CCC(=O)O)cc2)CC1 (configuration not stated) ?
Ans: inactive

Q: What do you get for "NS(=O)(=O)c1cc2c(cc1C(F)(F)F)NCNS2(=O)=O" ?
Ans: inactive

Q: What do you get for CC(C)CCCC(C)CCCC(C)CCCCC(C)CCCC(C)CCCC(C)C (configuration not stated) ?
Ans: inactive

Q: What do you get for "C=CCNC(N)=S" ?
Ans: inactive

Q: What do you get for "CCCCCCCCCCCCCCCCCCO" ?
Ans: inactive

Q: What do you get for "Cn1c(=O)c2c(ncn2CCO)n(C)c1=O" ?
Ans: inactive

Q: What do you get for "Cc1ccccc1N=Nc1ccc(N=Nc2c(O)ccc3ccccc23)c(C)c1" ?
Ans: inactive

Q: What do you get for "CC[N+](C)(CC)CCOC(=O)C1c2ccccc2Oc2ccccc21" ?
Ans: inactive

Q: What do you get for "OCc1ccc(Cl)cc1Cl" ?
Ans: inactive

Q: What do you get for "CN1C[C@@H]2C[C@H]1CN2c1cc2c(cc1F)c(=O)c(C(=O)O)cn2C1CC1" ?
Ans: active

====

Protocol notes: Stat Signaling Pathway (AID 446);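 further: ME-180 cervical cancer cells given 40 pM IL-6 alongside compound; SIE-controlled beta-lactamase reporter measured as 460/530 nm FRET emission ratio; on the % scale 0 is the no-effect control and ±100 the full control effect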
Condition: ME-180 (cervical carcinoma) SIE beta-lactamase reporter, IL-6 stimulated, 5 h; series mostly up to 17.2 µM
Results filed as inconclusive are left out. The source made the active and inactive calls. Calls come from the whole dose curve; as a rule, active = well fitted curve in either direction with a large enough effect (not every such curve was filed as active); inconclusive = small, poorly fitted or top-dose-only effect, or another doubt; inactive = flat fitted curve, though single readings scatter.
Metric name: outcome

See these solved cases before continuing.
Query smiles	outcome
CN/C(=C\[N+](=O)[O-])NCCSCc1csc(CN(C)C)n1	inactive
O=C(O)c1ccccc1OP(=O)(O)O	inactive
CCc1cccc(CC)c1NC(=O)CN(CC(=O)O)CC(=O)O	inactive
CCCCC1(COC(=O)CCC(=O)O)C(=O)N(c2ccccc2)N(c2ccccc2)C1=O	inactive
Cc1c(NC(C)C)c(=O)n(-c2ccccc2)n1C	inactive
Cc1cccc(Nc2ccccc2C(=O)O)c1C	inactive
CC(C)(C)C(=O)OCOC(=O)[C@@H]1N2C(=O)[C@@H](NC(=O)[C@H](N)c3ccccc3)[C@H]2SC1(C)C	inactive
COc1ccc2cc(CCC(C)=O)ccc2c1	inactive
COc1ccc(NS(=O)(=O)c2ccc(N)cc2)nn1	inactive
CC[N+](C)(CC)CCOC(=O)C1c2ccccc2Oc2ccccc21	inactive

Q: # query: outcome of entry "Cc1c(N(C)C)c(=O)n(-c2ccccc2)n1C"
Ans: inactive

Q: What do you get for "Cc1c(NC(=O)c2cccnc2)c(=O)n(-c2ccccc2)n1C" ?
Ans: inactive
